Tested on: poliovirus (PV type 3)
assay-info: microbe, parasite or virus in culture
Assay type: cell-based
assay-context: Enterovirus C, Vero, read-out: PV-3 EC50
endpoint: EC50

Completed entries (count: 5):
Cc1cccc(NC(=O)N2CCN(c3nc(N)nc4sc(-c5ccc(F)cc5)cc34)CC2)c1 = 0.73 µg/mL
Nc1nc(N2CCN(C(=O)COc3ccc(Cl)cc3)CC2)c2nc(-c3ccc(F)cc3)[nH]c2n1 = > 50 µg/mL
Nc1nc(N2CCN(C(=O)COc3ccc(Cl)cc3)CC2)c2nc(Cc3ccc(F)cc3)sc2n1 = > 50 µg/mL
C[C@@]1(O)[C@H](O)[C@@H](CO)O[C@H]1n1ccc(N)nc1=O = 15.3 µg/mL
CC(=O)N1CCN(c2nc(N)nc3oc(-c4ccc(F)cc4)nc23)CC1 = > 50 µg/mL

Which value of EC50 has been reported for Cc1cccc(NC(=O)N2CCN(c3nc(-c4ccccc4)nc4sc(-c5ccc(F)cc5)cc34)CC2)c1 in the records?
> 50 µg/mL

Requested read-out: EC50. Entry: COCCNC(=O)c1nc(N2CCN(C(=O)COc3ccc(Cl)cc3)CC2)c2cc(-c3ccc(F)cc3)sc2n1
> 50 µg/mL

Any idea what its EC50 is? The molecule is Nc1nc(N2CCN(C(=O)COc3ccc(Cl)cc3)CC2)c2nc(C(Cc3ccccc3)c3ccc(F)cc3)sc2n1 (stereo not shown)
> 50 µg/mL

Quick one: EC50 of Nc1nc(N2CCN(C(=O)COc3ccc(Cl)cc3Cl)CC2)c2nc(CCc3ccc(F)cc3)sc2n1 ?
> 50 µg/mL

What does the data say about its EC50? Entry: O=C(O)c1nc(N2CCN(C(=O)COc3ccc(Cl)cc3)CC2)c2cc(-c3ccc(F)cc3)sc2n1
> 50 µg/mL

# lookup: EC50 of COCc1nc2c(N3CCN(C(=O)COc4ccc(Cl)cc4)CC3)nc(N)nc2o1
10.7 µg/mL

What does the record list as EC50 for O=C(COc1ccc(Cl)cc1)N1CCN(c2ncnc3oc(Cc4ccc(F)cc4)nc23)CC1 ?
> 50 µg/mL

What measured EC50 goes with CCOC(=O)c1nc(N2CCN(C(=O)COc3ccc(Cl)cc3)CC2)c2cc(-c3ccc(F)cc3)sc2n1 ?
> 50 µg/mL

For CCCCCc1nc2c(N3CCN(C(=O)COc4ccc(Cl)cc4)CC3)nc(N)nc2o1 , what is its reported EC50?
0.32 µg/mL

Which EC50 reading was recorded for the molecule CC(c1ccc(F)cc1)c1nc2c(N3CCN(C(=O)COc4ccc(Cl)cc4)CC3)nc(N)nc2s1 (stereo not shown) ?
0.56 µg/mL

Quick one: EC50 of Nc1nc(N2CCN(C(=O)COc3ccc(Cl)cc3)CC2)c2nc(C3CC3)oc2n1 ?
> 50 µg/mL

Looking for the measured EC50 of Cc1cccc(OCC(=O)N2CCN(c3nc(N)nc4sc(CCc5ccc(F)cc5)nc34)CC2)c1 , can you help?
1.4 µg/mL

Endpoint output: EC50 of CC(C)S(=O)(=O)n1c(N)nc2ccc(/C(=N/O)c3ccccc3)cc21 . Value?
1.03 µg/mL

Param item = Nc1nc(N2CCN(C(=O)COc3ccc(Cl)cc3)CC2)c2nc(C3CCCCC3)oc2n1 ; retrieve measured EC50.
> 50 µg/mL

Given Cc1cccc(NC(=O)N2CCN(c3nc(C(N)=O)nc4sc(-c5ccc(F)cc5)cc34)CC2)c1 , state its recorded EC50.
> 50 µg/mL

Entry Nc1nc(N2CCN(C(=O)COc3ccc(Cl)cc3)CC2)c2nc(CCc3ccc(F)cc3)sc2n1 : reported EC50 = ?
1.17 µg/mL

Need EC50, item Nc1nc(N2CCN(C(=O)CCOc3ccc(F)cc3)CC2)c2nc(CCc3ccc(F)cc3)sc2n1
> 50 µg/mL

So what does the record say about EC50 for COCCN1CCN(c2nc(N)nc3oc(-c4ccc(F)cc4)nc23)CC1 ?
> 50 µg/mL

Using the record for Nc1nc(N2CCN(C(=O)COc3ccc(Cl)cc3)CC2)c2nc(CCc3ccc(F)cc3)oc2n1 , report its EC50.
4.36 µg/mL

Could you share which EC50 value was measured for Nc1nc(N2CCN(C(=O)COc3ccc(Cl)cc3)CC2)c2nc(-c3ccc(F)cc3)sc2n1 ?
< 0.023 µg/mL

Requested field: EC50. Item: O=C(COc1ccc(Cl)cc1)N1CCN(c2ncnc3sc(-c4ccc(F)cc4)cc23)CC1
2.05 µg/mL

Suppose we examine the molecule Cc1nc(N2CCN(C(=O)COc3ccc(Cl)cc3)CC2)c2nc(-c3ccc(F)cc3)sc2n1 ; what EC50 value has been reported?
> 50 µg/mL
